Molecular target: Solute carrier organic anion transporter family member 3A1 (SLCO3A1/OATP3A1) (Homo sapiens, UniProt Q9UIG8)
Sequence (Q9UIG8 whole entry): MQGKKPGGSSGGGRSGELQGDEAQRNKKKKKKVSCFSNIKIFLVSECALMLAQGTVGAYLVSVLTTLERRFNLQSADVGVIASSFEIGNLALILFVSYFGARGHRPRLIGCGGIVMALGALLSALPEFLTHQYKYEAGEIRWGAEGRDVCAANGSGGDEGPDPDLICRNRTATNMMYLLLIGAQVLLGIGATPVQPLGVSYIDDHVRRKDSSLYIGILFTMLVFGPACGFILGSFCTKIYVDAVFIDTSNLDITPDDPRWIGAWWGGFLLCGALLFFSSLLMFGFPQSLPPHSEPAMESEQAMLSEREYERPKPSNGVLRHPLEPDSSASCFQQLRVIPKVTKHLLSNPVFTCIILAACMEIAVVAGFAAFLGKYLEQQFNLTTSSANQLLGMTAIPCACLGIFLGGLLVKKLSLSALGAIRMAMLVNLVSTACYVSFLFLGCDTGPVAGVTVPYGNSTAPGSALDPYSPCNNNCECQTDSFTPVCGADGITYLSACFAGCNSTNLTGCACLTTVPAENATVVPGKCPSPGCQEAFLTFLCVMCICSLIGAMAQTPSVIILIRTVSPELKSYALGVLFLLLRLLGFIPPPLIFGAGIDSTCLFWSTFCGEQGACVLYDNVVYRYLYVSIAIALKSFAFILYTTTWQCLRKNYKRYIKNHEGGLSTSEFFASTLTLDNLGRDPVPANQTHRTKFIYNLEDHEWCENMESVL
Assay: TP_TRANSPORTER: inhibition of PGE2 uptake (PGE2: 0.015 uM) by P-aminohippuric acid at 0.15uM in Xenopus laevis oocytes
Format: functional, cell-based, Oocyte
Set-up: scale not given: the % may be the effect or the level left
Settings: Xenopus laevis oocytes expressing OATP3A1 (SLCO3A1), probe PGE2, read-out: Activity
measured_parameter: activity at 0.15 µM (%)
State the answer as a number, implicitly in %.

Form: molecule = `Nc1ccc(C(=O)NCC(=O)O)cc1` ; activity at 0.15 µM = 30

Source listed as ChEMBL document CHEMBL2074340.
